Origin of values: PubChem BioAssay AID504332

- TEST_TARGET: Histone-lysine N-methyltransferase EHMT2 (Homo sapiens) (UniProt Q96KQ7)
- Sequence (Q96KQ7 913-1193 limits assumed): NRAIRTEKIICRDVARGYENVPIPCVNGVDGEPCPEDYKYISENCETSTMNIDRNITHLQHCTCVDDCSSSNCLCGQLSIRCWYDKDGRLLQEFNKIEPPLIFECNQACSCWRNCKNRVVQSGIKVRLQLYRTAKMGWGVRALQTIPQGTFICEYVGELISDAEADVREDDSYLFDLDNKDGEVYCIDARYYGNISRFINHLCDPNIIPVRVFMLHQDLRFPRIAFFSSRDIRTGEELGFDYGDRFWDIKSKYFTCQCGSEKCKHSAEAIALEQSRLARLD
- ASSAY_TEXT: qHTS Assay for Inhibitors of Histone Lysine Methyltransferase G9a; also: nearly all actives have a fitted effect of over 75% in size; also: potency is read from the fitted curve at half-maximal effect
- TEST_SETTINGS: G9a H3K9 monomethylation, AlphaScreen, 2 h; series mostly up to 59 µM
About 31,000 (8.9%) of roughly 350,000 compounds were called active. Not shown: some 15% with an inconclusive outcome. This excerpt belongs to a sample that is enriched for actives.
READOUT_LABEL: Potency

Solved cases (8 shown):
>>> df
                                   molecule  readout_label            result
0  O=C(/C=C/c1ccccc1)N1CCN(Cc2cc(=O)n3nc(-c4ccccc4F)sc3n2)CC1        Potency          inactive
1  CCCSc1ncc(Cl)c(C(=O)Nc2c(C(=O)Nc3ccccc3)oc3ccccc23)n1        Potency          inactive
2  Cc1ccc(NC(=O)C(Cc2ccccc2)NS(=O)(=O)c2ccc3c(c2)oc(=O)n3C)cc1C (stereo not drawn)        Potency          inactive
3  COC(=O)c1ccc2c(C(C)(C)O)c(C(C)(C)O)[nH]c2c1        Potency          inactive
4  Cc1csc(NC(=O)C2CCN(S(=O)(=O)c3ccccc3)CC2)n1        Potency          inactive
5  CCOc1ccc(N2CC(C(=O)NCCN3C(=O)S/C(=C\c4cccnc4)C3=O)CC2=O)cc1 (stereo not drawn)        Potency  39.8 µM (active)
6  CCCCn1c(N)c(N(CCOC)C(=O)c2cccc(S(=O)(=O)N3CCCCC3)c2)c(=O)[nH]c1=O        Potency  50.1 µM (active)
7  COc1ccc(Cc2nc3ccc(C(=O)NCc4ccccc4C)cc3o2)cc1        Potency          inactive

Req: For the molecule Cc1ccc(-c2cc(C(F)(F)F)c(C#N)c(SCC(=O)Nc3ccccc3)n2)cc1 , what Potency is on record?
Resp: inactive

Req: For the molecule COC(=O)c1c(NC(=O)c2ccc(Cl)c(Cl)c2)sc2c1CCCC2 , what Potency is on record?
Resp: inactive

Req: For the molecule CCN(Cc1ccccc1)C(=O)Cc1ccc(OC)c(S(=O)(=O)N2CCOCC2)c1 , what Potency is on record?
Resp: inactive

* * *

- TEST_TARGET: Histone-lysine N-methyltransferase EHMT2 (Homo sapiens) (UniProt Q96KQ7)
- ASSAY_TEXT: qHTS Assay for Inhibitors of Histone Lysine Methyltransferase G9a; also: nearly all actives have a fitted effect of over 75% in size
- TEST_SETTINGS: G9a H3K9 monomethylation, AlphaScreen, 2 h; series mostly up to 59 µM
The campaign covered roughly 350,000 compounds. About 31,000 (8.9%) were called active. Not shown: some 15% with an inconclusive outcome. The call rests on the fitted dose curve; in most records, active means well fitted inhibition curve with a large enough effect; inconclusive means small, poorly fitted or top-dose-only effect; inactive means no such curve, though single readings can be large or run the other way. Only a selection was taken, and actives are over-represented in it overall.
A correct response names exactly one class from t = active, f = inactive

Req: # lookup: test call for O=C(Nc1ccccc1N1CCOCC1)c1ccc(OCc2cscn2)cc1
Resp: f

Req: # lookup: test call for COc1ccc(N2CCN(S(=O)(=O)c3cc4c5c(c3)C(C)C(=O)N5CCC4)CC2)cc1 (stereo not drawn)
Resp: t

Req: # lookup: test call for COc1ccccc1NC(=O)COC(=O)c1ccccc1SCC(=O)N1CCCC1
Resp: f

Req: # lookup: test call for Cc1ccc(-c2cc(C(=O)NC3CCN(Cc4ccccc4)CC3)c3ccccc3n2)cc1
Resp: f

Req: # lookup: test call for COc1ccccc1NC(=O)Cn1cnc2ccc(S(=O)(=O)N3CCC(C)CC3)cc2c1=O
Resp: f

Req: # lookup: test call for Cn1c(=O)cc(OCC(=O)N2CCN(c3ccccc3)CC2)c2ccccc21
Resp: f

Req: # lookup: test call for COc1cccc(C(=O)c2sc3nc(-c4ccccc4)cc(C(F)(F)F)c3c2N)c1
Resp: f

Req: # lookup: test call for Cc1sc(C2C(C#N)=C(N)N(c3cccc(Cl)c3)C3=C2C(=O)CCC3)cc1CN1CCOCC1 (stereo not drawn)
Resp: t

Req: # lookup: test call for COC(=O)CN1C(=O)[C@H]2[C@@H](C3CC3)N3C(=O)CN(Cc4ccc(-c5ccccc5)cc4)C(=O)[C@@]3(Cc3ccccc3)[C@H]2C1=O
Resp: f

Req: # lookup: test call for COCCCNC(=S)NCCNc1nc2cc(C)c(C)cc2cc1C#N
Resp: f

Req: # lookup: test call for COc1cc([N+](=O)[O-])ccc1NC(=O)COC(=O)CCOc1ccc(C)cc1
Resp: f

Req: # lookup: test call for COc1cc(C(=O)NNC(=O)CN2C(=O)NC3(CCCC3)C2=O)cc(OC)c1OC
Resp: f

Req: # lookup: test call for Cc1ccccc1C(=O)NC(=S)Nc1ccc(N2CCN(C(=O)c3ccccc3)CC2)cc1
Resp: f

Req: # lookup: test call for CCc1ccc(C2C(C#N)=C(N)N(N(C)C)C3=C2C(=O)CCC3)s1 (stereo not drawn)
Resp: f

Req: # lookup: test call for O=C(Cc1ccccc1)NC(=S)Nc1ccc(N2CCCCC2)cc1
Resp: t

Req: # lookup: test call for COc1ccc(C(=O)Nc2ccc3nc(N4CCCCC4)cc(C)c3c2)cc1OC
Resp: f

Req: # lookup: test call for CCN(CC)C(=O)c1sc2nc(-c3ccccc3)ccc2c1N
Resp: t

Req: # lookup: test call for O=C(CSc1ncc(S(=O)(=O)c2ccc(Br)cc2)c(=O)[nH]1)Nc1ccc2c(c1)OCCO2
Resp: f

Req: # lookup: test call for O=C(CP(=O)(c1ccccc1)c1ccccc1)N1CCOCC1
Resp: f

Req: # lookup: test call for O=S1(=O)CCN(Cc2ccccc2Cl)CC1
Resp: f

Req: # lookup: test call for COc1ccc(NC(=O)c2ccc3nc(C(C)C)oc3c2)cc1OC
Resp: f

Req: # lookup: test call for Cc1nc2c(c(C)nn2-c2ccccc2)c(C)c1CCC(=O)NCCc1ccc(Cl)cc1
Resp: f

Req: # lookup: test call for Cc1oc2c(c1C(=O)N1CCOCC1)C(=O)c1ccccc1C2=O
Resp: f

Req: # lookup: test call for Cc1ccc(C(=O)NC(=S)Nc2ccc(N3CCOCC3)cc2)cc1
Resp: t

Req: # lookup: test call for CCOc1ccccc1NS(=O)(=O)c1cc2c3c(c1)C(C)C(=O)N3CCC2 (stereo not drawn)
Resp: f

Req: # lookup: test call for COc1ccc(/C=C/C(=O)c2ccc(NS(=O)(=O)c3ccc(C)cc3)cc2)cc1O
Resp: f

Req: # lookup: test call for CCSc1nsc(NC(=O)Nc2ccccc2OC)n1
Resp: f

Req: # lookup: test call for COc1ccc(N2CCN(S(=O)(=O)c3ccc4c(c3)NC(=O)C(C)C(=O)N4)CC2)cc1 (stereo not drawn)
Resp: f

Req: # lookup: test call for O=P(O)(CP(=O)(c1ccccc1)c1ccccc1)c1ccccc1O
Resp: t

Req: # lookup: test call for COc1cccc(C(=O)Nc2ccc3nc4n(c(=O)c3c2)CCCCC4)c1
Resp: f

Req: # lookup: test call for Fc1ccc(CSc2nc(NCc3ccccc3)c3ccccc3n2)cc1
Resp: f

Req: # lookup: test call for CC1=Nc2cc(C(=O)N3CCC(C)CC3)ccc2Sc2ccc(Cl)cc21
Resp: f

Req: # lookup: test call for Cc1ccc(S(=O)(=O)c2cn(Cc3ccccc3)c3cc(N4CCCC4)c(F)cc3c2=O)c(C)c1
Resp: f

* * *

- TEST_TARGET: Histone-lysine N-methyltransferase EHMT2 (Homo sapiens) (UniProt Q96KQ7)
- ASSAY_TEXT: qHTS Assay for Inhibitors of Histone Lysine Methyltransferase G9a; also: nearly all actives have a fitted effect of over 75% in size
- TEST_SETTINGS: G9a H3K9 monomethylation, AlphaScreen, 2 h; series mostly up to 59 µM
Among all 350,000 compounds or so, about 31,000 (8.9%) were called active. Roughly 15% stayed inconclusive and do not appear here. The call rests on the fitted dose curve; in most records, active means well fitted inhibition curve with a large enough effect; inconclusive means small, poorly fitted or top-dose-only effect; inactive means no such curve, though single readings can be large or run the other way. Shown is part of a subset that was picked to be rich in actives.
A correct response names exactly one class from class 1 (active), class 0 (inactive)

Req: # lookup: test call for COc1ccccc1/C=C/c1nc(C#N)c(NC(C)c2ccccc2)o1 (stereo not drawn)
Resp: class 0

Req: # lookup: test call for CC(C)(C)c1ccc(SCCc2ccncc2)cc1
Resp: class 0

Req: # lookup: test call for O=C(CNc1ccccc1N1CCCC1=O)Nc1cc(Cl)ccc1-n1cncn1
Resp: class 0

Req: # lookup: test call for Cc1cc(C)nc(SCC(=O)c2ccc(Cl)cc2)n1
Resp: class 0

Req: # lookup: test call for COc1cccc(C(=O)NNC(=O)c2ccccc2Br)c1
Resp: class 0

Req: # lookup: test call for COc1cc(C(=O)Nn2c(O)c(C3=c4ccccc4=NC3=O)sc2=S)ccc1O
Resp: class 1

Req: # lookup: test call for COc1cc(C(=O)Nn2c(CC(C)C)nc3ccccc3c2=O)cc(OC)c1OC
Resp: class 0

Req: # lookup: test call for COc1ccc(Cc2nnc(SCC(=O)Nc3ccc(C)c(C)c3)o2)cc1OC
Resp: class 0

Req: # lookup: test call for O=C(CSc1nc2ccc([N+](=O)[O-])cc2[nH]1)c1ccc(Cl)cc1
Resp: class 1

Req: # lookup: test call for COc1ccc(CNC(=O)CCc2c(C)nn(-c3ccc(N4CCCC4)nn3)c2C)cc1
Resp: class 0

Req: # lookup: test call for Cc1cc(NC(=O)CN2CCC(O)(c3cccc(F)c3)CC2)no1
Resp: class 1

Req: # lookup: test call for COc1ccccc1CNS(=O)(=O)c1cc(C(=O)NCc2ccccn2)c(Cl)cc1Cl
Resp: class 0

Req: # lookup: test call for COc1ccc2c(c1)Cc1sc(NC(=O)c3ccccc3Br)nc1-2
Resp: class 1
